Molecular target: T1, DLG3_2, Q92796
T1 sequence (Q92796 221-321, limits assumed, looked up): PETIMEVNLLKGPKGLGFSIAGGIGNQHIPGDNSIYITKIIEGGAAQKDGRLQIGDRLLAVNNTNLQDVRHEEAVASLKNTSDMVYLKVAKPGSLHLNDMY
Assay: holdup assay
Parameters: key: below the threshold = too weak to quantify, mostly under pKd 3.1 to 4
Conditions: plain residues with an end cap or a label only (N-terminal biotin on a linker: ado-ado)
Parameter measured: pKd

GFGEERESIL [KIDINS220, Q9ULH0] | below the threshold
QKNKDKEYYV [NRXN3_rs746444206, Q9Y4C0] | below the threshold
EDLTKNHDEL [RCN1, Q15293] | below the threshold
